Every entry's value here was drawn from ChEMBL document CHEMBL3046421.

- tested.on: Polyunsaturated fatty acid 5-lipoxygenase (Rattus norvegicus, UniProt P12527)
- Sequence (P12527 whole entry): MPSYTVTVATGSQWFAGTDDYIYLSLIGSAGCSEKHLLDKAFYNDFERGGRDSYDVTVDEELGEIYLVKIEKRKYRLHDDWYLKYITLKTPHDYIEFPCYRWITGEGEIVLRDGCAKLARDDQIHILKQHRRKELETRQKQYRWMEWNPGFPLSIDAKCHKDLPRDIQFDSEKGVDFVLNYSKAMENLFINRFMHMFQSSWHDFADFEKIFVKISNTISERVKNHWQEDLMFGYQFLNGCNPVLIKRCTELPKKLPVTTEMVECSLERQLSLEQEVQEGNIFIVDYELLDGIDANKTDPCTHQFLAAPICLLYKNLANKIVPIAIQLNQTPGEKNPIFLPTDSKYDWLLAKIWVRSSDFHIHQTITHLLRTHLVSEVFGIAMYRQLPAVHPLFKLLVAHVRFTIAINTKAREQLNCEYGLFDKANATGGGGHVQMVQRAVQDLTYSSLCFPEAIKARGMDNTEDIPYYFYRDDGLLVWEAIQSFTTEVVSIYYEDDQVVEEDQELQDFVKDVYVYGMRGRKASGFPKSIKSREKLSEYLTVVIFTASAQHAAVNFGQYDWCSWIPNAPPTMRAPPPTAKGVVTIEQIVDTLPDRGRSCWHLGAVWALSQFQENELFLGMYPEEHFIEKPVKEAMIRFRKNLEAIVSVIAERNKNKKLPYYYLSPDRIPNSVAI
observation.type: IC50 (µM)
Give your result in µM as a bare value.

Let me check: CC[C@H](C)CCC1(C)OC1c1c(C)c(O)cc2c1[nH]c1c(O)ccc(CO)c12 (stereo partly specified) , system Polyunsaturated fatty acid 5-lipoxygenase (Rattus norvegicus, UniProt P12527), measured IC50 is 2.6
